System: Plasmodium berghei
Assay: Screen against P. berghei liver stage (PbLuc), transformed with Luciferase, at 10uM
Assay type: functional, HepG2
Details: tested at 10 uM
Screen size: about 69,000 compounds; about 8,600 (12%) showed an effect of 50% or more. The full list was thinned out, with strong results kept by preference.
Category scheme (INHIBITION): bucket 1: < 10%; bucket 2: ≥ 10% and < 40%; bucket 3: ≥ 40%

A selection of reference data follows.
Ask | Into which bin does this molecule go? `Cc1ccc(-c2snnc2C(=O)NCCCO)cc1`
Reply | bucket 1

Ask | Into which bin does this molecule go? `Cc1cccc(C(=O)N2CCc3c(CN(C)C)nn(C)c3C2)n1`
Reply | bucket 2

Read the next record carefully.
Ask | Assign a bin to O=C1NC2(CCCN(C(=O)CCn3cncn3)C2)Oc2ccccc21 (configuration not stated)
Reply | bucket 1

###

Tested on: Plasmodium berghei
Assay: Screen against P. berghei liver stage (PbLuc), transformed with Luciferase, at 10uM
Format: functional, HepG2
Conditions: tested at 10 uM
In all, about 69,000 compounds went through this assay and about 8,600 (12%) showed an effect of 50% or more. This excerpt belongs to a sample that is enriched for strong results.
# Lookup of reported INHIBITION keyed by entry
Could you give me the number in %? Just the number is fine.

Ask | # get_value(readout='INHIBITION', item= `Cc1noc(CN2C[C@@H]3CC[C@H]2CN(C2Cc4ccccc4C2)C3)n1` )
Reply | 30.9

Ask | # query: INHIBITION of entry `Cc1cc(NCc2cc3n(n2)CCCN(C(=O)C2CCC2)C3)nc(N)n1`
Reply | 80.2

Ask | Entry under review: `O=C(c1cn(-c2ccc(C(F)(F)F)cn2)nn1)N1CCCCCC1` . Reported INHIBITION?
Reply | 46.1

Ask | Given the entry `Cc1nnc(CN2C[C@@H]3CC[C@H]2CN(C2Cc4ccccc4C2)C3)o1` , report its measured INHIBITION.
Reply | 66.1

Ask | State the recorded INHIBITION for this entry: CCCN1CCCC1Cn1nc(C)cc1C (stereo unspecified)
Reply | 34.35

Next:
Ask | I would be grateful if you could share the reported INHIBITION for `O=C(c1ccncc1)N1CCc2c(COCC3CC3)cncc2C1` .
Reply | -1.55

Ask | Consider the molecule shown here: CCc1nn(C)c(Cl)c1CN1CCCC2(CC1)CN(C)C(=O)O2 (stereo unspecified) What is its recorded INHIBITION?
Reply | 53.4

Ask | I would be grateful if you could share the reported INHIBITION for `COc1cc(N2CC3(CCN(S(C)(=O)=O)C3)C2)ncn1` .
Reply | -21.7

Ask | For the molecule `CN(C)CCOCc1cncc2c1CCN(C1CCOCC1)C2` , what INHIBITION is on record?
Reply | 12.6

###

Test system: Plasmodium berghei
Experiment: Screen against P. berghei liver stage (PbLuc), transformed with Luciferase, at 10uM
Format: functional, HepG2
Conditions: tested at 10 uM
Among all 69,000 compounds or so, about 8,600 (12%) showed an effect of 50% or more. The full list was thinned out, with strong results kept by preference.
Is INHIBITION at least 40%? Then MET. If not, NOT MET.

Ask | Form field: INHIBITION at least 40%? Entry: CC(C)c1nnc2sc(CC3CN(Cc4ccccc4)CCO3)nn12 (stereo unspecified)
Reply | MET

Ask | Check if INHIBITION >= 40% (inclusive). Item: O=C1NC2(CCCN(C(=O)CCn3cccn3)C2)Oc2ccccc21 (stereo unspecified)
Reply | NOT MET

Ask | Evaluate Cc1cc(C)c2c(c1)C(NCc1c(C)nn(C)c1N(C)C)CCO2 (stereo unspecified) : INHIBITION at minimum 40%?
Reply | NOT MET

Ask | Decide: is the reported value of INHIBITION for `Cc1cc(OC(F)F)c(C(=O)N2CCC(CN(C)C)CC2)s1` equal to or greater than 40%?
Reply | NOT MET

Others:
Ask | INHIBITION >= 40% for `Cc1ccc(N2CCC3(CCN(C(=O)c4ccccn4)CC3)CC2)nn1` ?
Reply | NOT MET

Ask | Textbook exercise: given the entry `Cn1cc(N)c(-c2nnc3n2CCCC3)n1` , state whether its INHIBITION is greater than or equal to 40%.
Reply | MET

###

Tested on: Plasmodium berghei
Test: Screen against P. berghei liver stage (PbLuc), transformed with Luciferase, at 10uM
Format: functional, HepG2
Conditions: tested at 10 uM
Hit rate of the full screen: of about 69,000 compounds, about 8,600 (12%) showed an effect of 50% or more. For the sample, strong results were picked, then their nearest neighbours and some compounds at random.
Quantity kind: INHIBITION
Be sure to follow the number with its unit.

Ask | Returns the measured INHIBITION for the input compound. Input: Cc1cnn(C2CCCN(C(=O)c3ccc(C(N)=O)cn3)C2)c1 (stereo unspecified)
Reply | 44.3%

Ask | Entry `CCc1nnc2n1CCN(C(=O)c1cc3cc(C)ccc3[nH]1)C2` : reported INHIBITION = ?
Reply | 10%

Ask | Value lookup for INHIBITION; key = `Cc1cc2nc(SCC(=O)NC(C)C)n(Cc3ccco3)c(O)c-2n1`
Reply | 12.6%

Ask | // lookup INHIBITION for COc1cccc(C2CCN(c3ccc4cc[nH]c4n3)C2)c1OC (stereo unspecified)
Reply | 89.9%

Ask | Consider the compound `CC(C)NC(=O)C1CCN(c2snc3ccccc23)CC1` and give its measured INHIBITION.
Reply | -15.5%

Ask | # INHIBITION lookup, item `COC(=O)c1ccc(N2CCC(c3ccccc3)CC2)nn1`
Reply | -18.5%

Ask | INHIBITION lookup needed for `COc1cc(CN[C@@H]2COC[C@H]2Cc2cc(C)no2)cc(OC)c1` , thanks.
Reply | 40%

Ask | I'd like to know its INHIBITION. The compound in question is `Cc1ccoc1C(=O)N1CCn2nnc(COc3cccnc3)c2C1`
Reply | 17.1%

Ask | Would you kindly share the measured INHIBITION for Cc1cc(CN2CCC(N(C)Cc3nnc(C4CC4)n3C)C2)on1 (stereo unspecified) ?
Reply | 19.2%

Ask | Please look up its INHIBITION: CC(C)(C(=O)NCC1CCN(Cc2ccccn2)C1)c1ccccc1 (stereo unspecified)
Reply | 49.2%

Kindly review the next compound as well.
Ask | Fill in: INHIBITION of CCN(CC)c1ccc(C(=O)N2CCCC(n3cncn3)C2)cn1 (stereo unspecified) is ___
Reply | -12.7%

###

INHIBITION values for the molecules below.
Test system: Plasmodium berghei
Test: Screen against P. berghei liver stage (PbLuc), transformed with Luciferase, at 10uM
Type: functional, HepG2
Settings: tested at 10 uM
Hit rate of the full screen: of about 69,000 compounds, about 8,600 (12%) showed an effect of 50% or more. This is one part of a sample in which strong results are shown more often than they occur.
Answer format: numeric, % implied, no suffix.

Ask | Can you look up the measured INHIBITION of N#Cc1ccc(NCCCOCC2CCCO2)c(F)c1 (configuration not stated) for me?
Reply | 6.02

Ask | Need INHIBITION, item N#Cc1ccc(NCc2cccc(OCC3CCCO3)c2)nc1 (configuration not stated)
Reply | 53.8

Ask | For `CCS(=O)(=O)NCc1nc(C)cc(N2CCCC2)n1` , what is its reported INHIBITION?
Reply | 25.1

Ask | Look at this molecule and give its reported INHIBITION. Cc1nc(C2CCCN(C(=O)CO)C2)cc(N2CCOCC2)n1 (configuration not stated)
Reply | -1.53

Ask | Param item = Cc1ccc(CN2CCN(C3CCC3)CC2CCO)o1 (configuration not stated) ; retrieve measured INHIBITION.
Reply | 46.6

Further cases:
Ask | Find the recorded INHIBITION belonging to `Cc1ncsc1-c1ccn(CC(=O)Nc2cnn(C)n2)n1` and report it.
Reply | 85.7

Ask | For Cc1nnc(NCc2cccc(OCC3CCCO3)c2)c(C#N)c1C (configuration not stated) , what is its reported INHIBITION?
Reply | 1.74

Ask | Consider the molecule shown here: `Cc1nc2c(c(NC(C)C)n1)CCN(C(=O)c1cc[nH]n1)CC2` What is its recorded INHIBITION?
Reply | 34.6

Ask | Request the reported INHIBITION associated with `CCNC(=O)CN1CCN(c2cc(C)nc(-c3ccncc3)n2)CC1`
Reply | 48.1

Ask | # get_value(readout='INHIBITION', item= `N#Cc1ccc(NCc2cccc(COC3CCOCC3)c2)nc1` )
Reply | 7.58

Ask | Can you look up the measured INHIBITION of `COc1ncc(NCc2ccc(Cl)c(Cl)c2)cc1C(N)=O` for me?
Reply | 71.8

Ask | Bench note: what INHIBITION did `O=C(NCCc1nnc2n1CCC2)NCC1(c2cccc(F)c2)CC1` show?
Reply | -36.3

Ask | Need INHIBITION of `Cn1nccc1NC(=O)Cn1ccc(-c2ccc3c(c2)OCO3)n1` , thanks.
Reply | 43.4

Ask | What value of INHIBITION has been recorded for this entry: `CC(C)NC(=O)Cn1cc(-c2ccccc2)cn1`
Reply | -16.7

Ask | # input molecule: `Cc1ncsc1-c1cc(C(=O)NCCO)ccn1` ; wanted: its INHIBITION
Reply | 42.6
